B1: glmS ribozyme (parent)
chain: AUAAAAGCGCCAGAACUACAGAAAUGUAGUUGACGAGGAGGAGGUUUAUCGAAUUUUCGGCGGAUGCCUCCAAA

Variants of: B1
Method description: self-cleavage kobs at 2500 uM GlcN6P; higher = faster cleavage; RNA array
Condition label: with glucosamine-6-phosphate
This sample holds only a part of the variants without activity.
So I've got a bunch of variants here, and I need their self-cleavage kobs at 2500 uM GlcN6P values.
Answers are plain numbers, in s⁻¹.

Example results:
{"Variant spec": "G40U U56A", "Result number": 0.00116}
{"Variant spec": "U30A A42C U45G U65G C70G", "Result number": 0.000761}
{"Variant spec": "U54C A64C", "Result number": 0.000124}
{"Variant spec": "A39G A53C C70A", "Result number": 0.000143}
{"Variant spec": "C50U U56G C70G", "Result number": 0.000251}
{"Variant spec": "G44U", "Result number": 0.000282}

Give one value of self-cleavage kobs at 2500 uM GlcN6P per listed variant.
1. A12G G38U C67G C68A
2. A12G U56G
3. C11U U65A
4. A15U A53G
5. C19A U56G C68U
6. C16G G41U
7. U31C A42G

Result:
9.28e-05
0.00024
9.22e-05
0.00373
0.00041
7.39e-05
0.00407

Origin of the recorded values: the supplement of paper PMC7125110
